Listing of entries alongside the reported pIC50.
System name: Programmed cell death protein 1/Programmed cell death 1 ligand 1 (Homo sapiens, UniProt Q15116+Q9NZQ7)
Sequence (Q15116 whole entry): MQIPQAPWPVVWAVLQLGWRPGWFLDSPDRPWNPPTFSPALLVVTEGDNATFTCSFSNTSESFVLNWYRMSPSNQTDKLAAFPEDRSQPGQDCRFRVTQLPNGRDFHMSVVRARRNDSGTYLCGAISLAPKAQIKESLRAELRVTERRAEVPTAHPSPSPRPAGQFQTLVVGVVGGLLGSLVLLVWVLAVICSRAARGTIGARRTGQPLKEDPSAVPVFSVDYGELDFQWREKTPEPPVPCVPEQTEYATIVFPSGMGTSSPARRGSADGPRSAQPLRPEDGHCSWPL
Sequence (Q9NZQ7 whole entry): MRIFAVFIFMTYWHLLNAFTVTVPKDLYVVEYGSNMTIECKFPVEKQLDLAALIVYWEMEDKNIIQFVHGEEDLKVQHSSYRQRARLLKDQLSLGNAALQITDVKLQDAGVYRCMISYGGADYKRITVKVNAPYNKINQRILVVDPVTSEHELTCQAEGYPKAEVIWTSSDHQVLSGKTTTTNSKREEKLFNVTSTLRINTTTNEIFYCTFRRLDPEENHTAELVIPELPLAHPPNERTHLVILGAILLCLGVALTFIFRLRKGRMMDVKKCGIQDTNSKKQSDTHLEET
Method notes: Inhibition of human PD-1/PD-L1 interaction assessed as disruption of PD-1/PD-L1 complex incubated for 2 hrs by Tag-1 Eu3+ and anti-Tag2-XL665 based HTRF assay
Field pIC50 (float): negative decimal logarithm of the concentration in molar.

Consider the worked cases shown below.
>  <Compound>
CC(=O)NCCNCc1cc([N+](=O)[O-])c(OCc2cccc(-c3ccccc3)c2C)cc1OCc1cccc(C#N)c1

>  <Value measured>
8.09

$$$$
>  <Compound>
Cc1c(COc2cc(OCc3ccnc(C#N)c3)c(CN[C@@H](CO)C(=O)O)cc2[N+](=O)[O-])cccc1-c1ccccc1

>  <Value measured>
8.03

$$$$
>  <Compound>
Cc1c(COc2ccc(CN3CCC[C@H]3C(=O)NC(C)(CO)CO)cc2[N+](=O)[O-])cccc1-c1ccccc1

>  <Value measured>
7.31

$$$$
>  <Compound>
Cc1c(COc2ccc(CN3CCC[C@H]3C(=O)N(C)CC(O)CO)cc2[N+](=O)[O-])cccc1-c1ccccc1 (stereo partly drawn)

>  <Value measured>
8.00

$$$$
>  <Compound>
Cc1c(COc2cc(OCc3cccc(C#N)c3)c(CN(C)CC(=O)O)cc2[N+](=O)[O-])cccc1-c1ccccc1

>  <Value measured>
8.13

$$$$

Query: Which pIC50 value is on record for "Cc1c(COc2cc(OCc3cccnc3)c(CN[C@H](C(=O)O)[C@@H](C)O)cc2[N+](=O)[O-])cccc1-c1ccccc1" ?
Reply: 7.81

Query: Requested read-out: pIC50. Entry: "Cc1c(COc2ccc(CN3CCC[C@H]3C(=O)O)cc2[N+](=O)[O-])cccc1-c1ccccc1"
Reply: 7.34

Query: # query: pIC50 of entry "Cc1c(COc2ccc(CN3CCCC[C@H]3C(=O)NCC(C)(C)O)cc2[N+](=O)[O-])cccc1-c1ccccc1"
Reply: 7.92
